# TESTED_SYSTEM: T1, RecE564 P658L (Escherichia coli K12, UniProt P15032 564-866, P658L)
# T1 sequence: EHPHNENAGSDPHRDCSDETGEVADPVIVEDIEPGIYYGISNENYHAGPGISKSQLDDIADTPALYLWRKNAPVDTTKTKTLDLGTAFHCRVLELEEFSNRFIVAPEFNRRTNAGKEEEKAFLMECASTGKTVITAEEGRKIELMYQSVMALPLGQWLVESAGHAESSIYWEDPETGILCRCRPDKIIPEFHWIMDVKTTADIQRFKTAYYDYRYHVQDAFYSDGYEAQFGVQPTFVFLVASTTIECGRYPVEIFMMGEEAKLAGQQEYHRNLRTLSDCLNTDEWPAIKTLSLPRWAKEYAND
# PROCEDURE_TEXT: fluorescence anisotropy
pKd: −log10 of the molar value.
EXPERIMENTAL_READOUT: pKd

> print(dat)
                                     binder  experimental.readout  observed.measurement
1  F25 (dsDNA) DNA 1: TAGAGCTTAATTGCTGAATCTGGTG DNA 2: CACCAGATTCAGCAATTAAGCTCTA                   pKd                  7.10
